Data credit: the supplement of paper PMC12669032

- Test system: Akkermansia muciniphila
- assayDetails: growth AUC relative to DMSO control (median of replicates) (fraction); higher = more growth (less inhibition), active = hit call of the paper
- conditionDescription: 20 µM; 24 h
Reported values of growth AUC for individual entries

Past entries and their recorded results:
# compound, growth AUC
records = [
    ("COP1(=S)OCc2ccccc2O1 (stereo not given)", "1.01 (inactive)"),
    ("O=C1C2CC=CCC2C(=O)N1SC(Cl)(Cl)Cl (stereo not given)", "0.981 (inactive)"),
]

growth AUC lookup needed for CCOP(=O)(N=C1SCC(C)S1)OCC (stereo not given) , thanks.
0.979 (inactive)

Param item: Cc1nc(N(C)C)nc(OC(=O)N(C)C)c1C
1.02 (inactive)

Okay, and CCOP(=S)(OCC)SCCSCC ?
0.992 (inactive)

----------
Below, each of the compounds is paired with its reported growth AUC value.
- Tested on: Bacteroides dorei
- assayDetails: growth AUC relative to DMSO control (median of replicates) (fraction); higher = more growth (less inhibition), active = hit call of the paper
- conditionDescription: 20 µM; 24 h
Format: numeric value only, no unit, no commentary.

# compound, growth AUC
data = [
    ("CC(=O)CC(c1ccc(Cl)cc1)c1c(O)c2ccccc2oc1=O (stereo not given)", 0.958),
]

Form field: reported growth AUC of COc1nc(NC(C)C)nc(NC(C)C)n1
0.994

----------
Catalogue of growth AUC readings, one per entry.
- Test system: Lactobacillus gasseri
- assayDetails: growth AUC relative to DMSO control (median of replicates) (fraction); higher = more growth (less inhibition), active = hit call of the paper
- conditionDescription: 20 µM; 24 h
Give a plain numeric answer without units written out.

# compound, growth AUC
records = [
    ("ClC1=C(Cl)C(Cl)(C2(Cl)C(Cl)=C(Cl)C(Cl)=C2Cl)C(Cl)=C1Cl", 1.01),
    ("CC(C)[C@@H](Nc1ccc(C(F)(F)F)cc1Cl)C(=O)OC(C#N)c1cccc(Oc2ccccc2)c1 (stereo partly drawn)", 1.02),
]

Continue with the compound presented below.
Please give the measured growth AUC for this compound: CNC(=O)N(C)c1nc2ccccc2s1
0.994

----------
- Tested on: Clostridium difficile
- assayDetails: growth AUC relative to DMSO control (median of replicates) (fraction); higher = more growth (less inhibition), active = hit call of the paper
- conditionDescription: 20 µM; 24 h
Measured growth AUC of individual entries
Reply: number alone, nothing else.

Sample answers from the record:
# compound, growth AUC
rows = [
    ("CC1COC(Cn2cncn2)(c2ccc(Oc3ccc(Cl)cc3)cc2Cl)O1 (stereo not drawn)", 0.881),
    ("C[C@@H](Oc1ccc(Cl)cc1Cl)C(=O)O", 0.949),
    ("COCC(C)N(C(=O)CCl)c1c(C)csc1C (stereo not drawn)", 0.847),
    ("Oc1cccc2cccnc12", 0.959),
    ("CNC(=O)O/N=C(\\SC)C(=O)N(C)C", 0.965),
    ("COP(=O)(OC)Oc1ccc(SC)c(C)c1", 0.999),
    ("Clc1c(Cl)c(Cl)c(Cl)c(Cl)c1Cl", 1),
    ("CCOC(=O)CC(SP(=O)(OC)OC)C(=O)OCC (stereo not drawn)", 0.952),
]

# query: growth AUC of entry COC(=O)c1ccccc1S(=O)(=O)NC(=O)Nc1nc(C)cc(C)n1
1

Here is the next compound: O=C1C(Cl)=C(Cl)C(=O)c2ccccc21
0.912

For CCC(C)n1c(=O)[nH]c(C)c(Br)c1=O (stereo not drawn) then?
0.945

----------
- Tested on: Streptococcus salivarius
- assayDetails: growth AUC relative to DMSO control (median of replicates) (fraction); higher = more growth (less inhibition), active = hit call of the paper
- conditionDescription: 20 µM; 24 h
Reported growth AUC values follow for various molecules
# print the numeric value only

# molecularString, growth AUC
rows = [
    ("Oc1ccc(Cl)c(Cl)c1Cl", 0.96),
]

Returns the measured growth AUC for the input molecule. Input: COP(=S)(OC)Oc1cc(Cl)c(Cl)cc1Cl
0.994

Also c1coc(-c2nc3ccccc3[nH]2)c1 , if possible.
0.984

----------
- Test system: Coprococcus comes
- assayDetails: growth AUC relative to DMSO control (median of replicates) (fraction); higher = more growth (less inhibition), active = hit call of the paper
- conditionDescription: 20 µM; 24 h
reportedEndpoint: growth AUC

Study these solved cases before continuing.
# compound, result
records = [
    ("CC(=O)O.NC(N)=NCCCCCCCCNCCCCCCCCN=C(N)N", "0.64 (active)"),
    ("COC(=O)[C@@H](C)N(C(=O)Cc1ccccc1)c1c(C)cccc1C", "0.978 (inactive)"),
    ("CC1(C)CCC(Cc2ccc(Cl)cc2)C1(O)Cn1cncn1 (centres undefined)", "0.982 (inactive)"),
]

Given the compound CC(=O)CC(c1ccc(Cl)cc1)c1c(O)c2ccccc2oc1=O (centres undefined) , what is its reported growth AUC?
0.987 (inactive)

Input CC(C)C(C(=O)OC(C#N)c1cccc(Oc2ccccc2)c1)c1ccc(OC(F)F)cc1 (centres undefined)
1.02 (inactive)

Note, next up: CCCN(CCC)c1c([N+](=O)[O-])cc(C(F)(F)F)cc1[N+](=O)[O-]
1 (inactive)

Proceed to CNC(=S)S
1.03 (inactive)

# iterate: CCCSP(=S)(OCC)Oc1ccc(SC)cc1 (centres undefined)
1.04 (inactive)

And what about the compound COP(=S)(OC)Oc1ccc([N+](=O)[O-])cc1 ?
0.992 (inactive)

Please do the same for C=CCC1=C(C)C(OC(=O)C2C(C=C(C)C)C2(C)C)CC1=O (mixture of isomers) as well.
0.963 (inactive)

Another compound to check: CC(C)(C)C(O)(CCc1ccc(Cl)cc1)Cn1cncn1 (centres undefined)
1.02 (inactive)

Record: COc1c(Cl)ccc(Cl)c1Cl
0.973 (inactive)

Note, next up: CCCCN(CCCC)N=O
0.982 (inactive)

Subsequent entry: CCCCOC(=O)N(C)SN(C)C(=O)Oc1cccc2c1OC(C)(C)C2
1 (inactive)

----------
- Test system: Parabacteroides distasonis
- assayDetails: growth AUC relative to DMSO control (median of replicates) (fraction); higher = more growth (less inhibition), active = hit call of the paper
- conditionDescription: 20 µM; 24 h
reportedEndpoint: growth AUC
// response body must contain only the number

Field: example entries. Status: answers known.
# compound, reportedEndpoint, quantitativeResult
measured = [
    ("CC(C)[C@H](C(=O)O[C@H](C#N)c1cccc(Oc2ccccc2)c1)c1ccc(Cl)cc1", "growth AUC", 0.923),
    ("COP(=S)(NC(C)C)Oc1ccc(C)cc1[N+](=O)[O-] (stereo unspecified)", "growth AUC", 0.972),
    ("CC(C)(C)[C@@H](O)[C@H](Oc1ccc(Cl)cc1)n1cncn1", "growth AUC", 0.972),
    ("CCOC(=O)COc1cc(-c2nn(C)c(OC(F)F)c2Cl)c(F)cc1Cl", "growth AUC", 1.02),
    ("O=C(O)COc1ccccc1", "growth AUC", 1),
    ("c1cc2c3c(cccc3c1)CC2", "growth AUC", 1.01),
]

Observed growth AUC on Parabacteroides distasonis for BrCCBr , please.
1.04

Also check CCNc1nc(Cl)nc(NCC)n1
1.01

And what about the compound COP(=S)(OC)Oc1ccc(S(N)(=O)=O)cc1 ?
0.992

// repeat for Cc1cc(C(C#N)c2ccc(Cl)cc2)c(Cl)cc1NC(=O)c1cc(I)cc(I)c1O (stereo unspecified) and report
0.0201

----------
Recorded growth AUC values for a group of compounds are listed next.
- Test system: Bacteroides uniformis
- assayDetails: growth AUC relative to DMSO control (median of replicates) (fraction); higher = more growth (less inhibition), active = hit call of the paper
- conditionDescription: 20 µM; 24 h
// keep it numeric: no unit symbol after the value

Check out these entries, answers already filled in.
# compound, growth AUC
rows = [
    ("CNC(=O)c1cc(Cl)cc(C)c1NC(=O)c1cc(Br)nn1-c1ncccc1Cl", 0.976),
    ("Oc1ccc(Cl)cc1Cc1cc(Cl)ccc1O", 0.163),
    ("CCOP(=O)(OCC)Oc1ccc(S(C)(=O)=O)cc1", 1.03),
]

What reported growth AUC corresponds to CC(Oc1ccc(Oc2ccc(C(F)(F)F)cn2)cc1)C(=O)O (stereo not given) on Bacteroides uniformis?
0.899

Another compound: COP(=O)(OC)Oc1ccc([N+](=O)[O-])cc1
1

Input CCOP(=S)(OCC)OP(=S)(OCC)OCC
0.988

----------
- Test system: Bacteroides caccae
- assayDetails: growth AUC relative to DMSO control (median of replicates) (fraction); higher = more growth (less inhibition), active = hit call of the paper
- conditionDescription: 20 µM; 24 h
Short version: growth AUC at least 1 is T, less is F.

Example entries and their recorded answers appear below.
# molecule, qualitativeLabel
measured = [
    ("COP(=S)(OC)Oc1ccc(S(=O)(=O)N(C)C)cc1", "F"),
    ("COP(=S)(OC)Oc1cc(Cl)c(Br)cc1Cl", "F"),
    ("CCCOC(=O)c1ccccc1C(=O)OCCC", "T"),
    ("Oc1ccc(-c2ccccc2)cc1", "T"),
    ("CC(C)(C)C(O)C(Cc1ccc(Cl)cc1Cl)n1cncn1 (mixture of isomers)", "F"),
    ("N#Cc1nn(-c2c(Cl)cc(C(F)(F)F)cc2Cl)c(N)c1S(=O)C(F)(F)F (stereo unspecified)", "F"),
    ("Cc1c(N)cccc1N", "F"),
    ("C=CCOC(Cn1ccnc1)c1ccc(Cl)cc1Cl.O=S(=O)(O)O (stereo unspecified)", "F"),
]

Now, please, on to the next molecule.
Would you say O=S(=O)(Oc1ccc(Cl)cc1)c1ccc(Cl)cc1 shows growth AUC at minimum 1?
F
